tested_target: human CB1 (Homo sapiens)
Sequence (P21554 whole entry): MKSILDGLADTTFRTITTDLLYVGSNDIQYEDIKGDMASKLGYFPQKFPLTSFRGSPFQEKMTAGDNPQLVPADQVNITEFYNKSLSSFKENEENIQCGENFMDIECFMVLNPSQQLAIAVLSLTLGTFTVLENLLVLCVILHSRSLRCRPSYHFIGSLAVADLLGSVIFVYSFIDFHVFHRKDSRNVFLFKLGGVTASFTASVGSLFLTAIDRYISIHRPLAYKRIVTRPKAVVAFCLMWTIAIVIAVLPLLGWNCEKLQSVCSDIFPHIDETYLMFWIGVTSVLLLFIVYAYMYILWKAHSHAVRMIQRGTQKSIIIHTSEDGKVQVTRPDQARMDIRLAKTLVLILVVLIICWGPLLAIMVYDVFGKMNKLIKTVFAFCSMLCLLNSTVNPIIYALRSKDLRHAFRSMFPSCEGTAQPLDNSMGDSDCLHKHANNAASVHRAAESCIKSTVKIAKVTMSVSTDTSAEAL
assay_info: AequoScreen CB1 intracellular Ca2+ release assay
Type: cell-based
Design: host or cells: CHO-K1 (AequoZen recombinant cell line)
recorded_conditions: Table 5; Seizure (precursor seized in Switzerland); read-out: Potency (EC50, nM) AequoScreen
parameter: EC50 (nM)

COC(=O)C(NC(=O)c1n[nH]c2ccccc12)C(C)(C)C (stereo not shown); 7610
